These data points were gathered from ChEMBL document CHEMBL5058564.

- System: HEK-293T
- Method description: Incucyte cell viability with HEK293T; also: unitless GR value; below 1 slowed growth and below 0 cell loss
- Format: toxicity, cell-based
- Assay setup: human, 6 h, 10 µM, compound concentration 10 uM, replicate number 2, timepoint 6 hours
Kindly apply the following: fulfilled if Growth Rate is less than 0.3, not fulfilled in every other case.

Solved cases (3 shown):
- Compound: "COC1(C[S@@+]([O-])c2ccccc2)CCN(CCc2c[nH]c3ccc(F)cc23)CC1"
  Target system: "HEK-293T"
  Class label: "not fulfilled"
- Compound: "N[C@@]1(C(=O)O)CO[C@H]2[C@H](C(=O)O)[C@H]21"
  Target system: "HEK-293T"
  Class label: "not fulfilled"
- Compound: "CN(C)CCN(Cc1ccc(-c2ccc(CNCCc3ccccc3)cc2)cc1)C(=O)CCC1CCCC1.Cl.Cl"
  Target system: "HEK-293T"
  Class label: "fulfilled"

Growth Rate strictly < 0.3 for this compound? CC(=O)NCCc1c(Cc2ccccc2)[nH]c2ccccc12
not fulfilled

Growth Rate strictly < 0.3 for this compound? CN[C@@H]1CCc2[nH]c3ccc(C(N)=O)cc3c2C1.O.O=C(O)CCC(=O)O [FROVATRIPTAN SUCCINATE]
not fulfilled

Growth Rate strictly < 0.3 for this compound? Nc1nc(-c2ccco2)c2cnn(Cc3ccccc3F)c2n1
fulfilled

Growth Rate strictly < 0.3 for this compound? CCCCCCCCCCCCC/C=C/[C@@H](O)[C@@H](N)COP(=O)([O-])OCC[N+](C)(C)C
fulfilled

Growth Rate strictly < 0.3 for this compound? Br.Cc1cccc(C2CN(C)CCc3c2cc(O)c(O)c3Cl)c1 (configuration not stated)
not fulfilled

Growth Rate strictly < 0.3 for this compound? O=C(O)C(F)(F)F.O=C1NC(=O)/C(=C/c2c[nH]c(=O)c(-c3ccc(N4CCNCC4)nc3)c2)S1
fulfilled

Growth Rate strictly < 0.3 for this compound? Cc1cccc(NC(=O)CN2CCC(c3ccccn3)CC2)c1.Cl.Cl
not fulfilled

Growth Rate strictly < 0.3 for this compound? O=C(O)CCC/C=C\CC1C(O)CC(O)C1/C=C/C(O)COc1cccc(Cl)c1 (configuration not stated)
not fulfilled

Growth Rate strictly < 0.3 for this compound? CC(C)COc1ccc(CNC(=O)N(Cc2ccc(F)cc2)C2CCN(C)CC2)cc1
not fulfilled

Growth Rate strictly < 0.3 for this compound? CN(C)C/C=C/C(=O)Nc1ccc(C(=O)N2CCCC(Nc3ncc(Cl)c(-c4c[nH]c5ccccc45)n3)C2)cc1 (configuration not stated)
fulfilled

Growth Rate strictly < 0.3 for this compound? CC[C@H](NC(=O)c1c(C)c(-c2ccccc2)nc2ccccc12)c1ccccc1
not fulfilled

Growth Rate strictly < 0.3 for this compound? O=c1c2cccn2c2ccccc2n1CCCN1CCC(c2ccc(Cl)cc2)CC1
not fulfilled

Growth Rate strictly < 0.3 for this compound? O=C1NCc2ccc3c(-c4cccc(Cl)c4)c[nH]c3c21
fulfilled

Growth Rate strictly < 0.3 for this compound? Cc1ccccc1C(=O)Nc1ccc(C(=O)N2CCCC(N(C)C)c3ccccc32)cc1.Cl (configuration not stated)
fulfilled
